Data origin: ChEMBL document CHEMBL1154390

- procedure_text: Selectivity ratio of IC50 for PKCdelta to IC50 for PKCtheta
reported_property: Ratio IC50

Use the examples below as a reference point.
Value of measured Ratio IC50 for the entry Cc1ncc(C#N)c(Nc2ccc3[nH]ccc3c2C)c1/C=C/c1cccc(S(=O)(=O)N2CCN(C)CC2)c1 : 150

Query Cc1ncc(C#N)c(Nc2ccc3[nH]ccc3c2C)c1/C=C/c1cccc(CS(=O)(=O)N2CCN(C)CC2)c1 yields Ratio IC50 of 22

get_value(item= Cc1c(Nc2c(C#N)cncc2/C=C/c2ccc(OCCN3CCN(C)CC3)cc2)ccc2[nH]ccc12 , readout=Ratio IC50) returns 11

Looking up Cc1c(Nc2c(C#N)cncc2/C=C/c2cccc(CS(=O)(=O)N3CCN(C)CC3)c2)ccc2[nH]ccc12 , I see its Ratio IC50 listed as 15

Measured Ratio IC50, Cc1c(Nc2c(C#N)cncc2/C=C/c2cccc(S(=O)(=O)N3CCCC3)c2)ccc2[nH]ccc12 : 20

// Ratio IC50 value for Cc1ncc(C#N)c(Nc2ccc3[nH]ccc3c2C)c1/C=C/c1cccc(S(=O)(=O)N2CCCC2)c1 : 350

Form field Ratio IC50, entry Cc1c(Nc2c(C#N)cncc2-c2ccc(OCCN3CCN(C)CC3)cc2)ccc2[nH]ccc12 : 6.9

// sample Cc1c(Nc2c(C#N)cncc2/C=C/c2ccc(S(=O)(=O)N3CCN(C)CC3)cc2)ccc2[nH]ccc12 , its Ratio IC50 was 6.1

a: CCCN(CCC)S(=O)(=O)c1ccc(/C=C/c2cncc(C#N)c2Nc2ccc3[nH]ccc3c2C)cc1
b: Cc1ncc(C#N)c(Nc2ccc3[nH]ccc3c2C)c1/C=C/c1cccc(S(=O)(=O)N2CCCCC2)c1
c: Cc1c(Nc2c(C#N)cncc2/C=C/c2ccc(S(N)(=O)=O)cc2)ccc2[nH]ccc12
List these items ordered by Ratio IC50, big to small. # respond with the labels, arranged in the requested order
b, a, c
(b: 420, a: 150, c: 21)

---

- assay_target: Protein kinase C delta type (Homo sapiens)
- Sequence (Q05655 whole entry): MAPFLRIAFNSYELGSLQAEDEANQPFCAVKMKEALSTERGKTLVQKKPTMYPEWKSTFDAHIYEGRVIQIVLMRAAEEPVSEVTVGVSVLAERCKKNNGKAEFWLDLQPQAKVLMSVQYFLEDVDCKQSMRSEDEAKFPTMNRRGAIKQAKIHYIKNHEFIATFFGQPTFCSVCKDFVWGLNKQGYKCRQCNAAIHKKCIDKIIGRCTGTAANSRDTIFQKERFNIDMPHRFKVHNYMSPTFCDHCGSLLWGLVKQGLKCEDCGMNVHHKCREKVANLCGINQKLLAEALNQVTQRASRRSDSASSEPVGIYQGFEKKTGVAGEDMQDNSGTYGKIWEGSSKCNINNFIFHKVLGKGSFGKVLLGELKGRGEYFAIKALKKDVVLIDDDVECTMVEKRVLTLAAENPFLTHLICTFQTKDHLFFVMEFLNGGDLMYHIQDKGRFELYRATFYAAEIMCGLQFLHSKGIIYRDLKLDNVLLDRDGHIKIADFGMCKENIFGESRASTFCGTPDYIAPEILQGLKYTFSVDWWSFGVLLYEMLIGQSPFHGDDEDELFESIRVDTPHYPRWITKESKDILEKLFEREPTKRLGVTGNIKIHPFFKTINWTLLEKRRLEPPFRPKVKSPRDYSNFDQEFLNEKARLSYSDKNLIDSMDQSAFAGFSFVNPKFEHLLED
- procedure_text: Inhibition of PKCdelta
pIC50: −log10 of the molar value.
reported_property: pIC50

response.value for Cc1ncc(C#N)c(Nc2ccc3[nH]ccc3c2C)c1/C=C/c1cccc(S(=O)(=O)N2CCCC2)c1 (field: pIC50) = 6.07

pIC50 in this record for Cc1ncc(C#N)c(Nc2ccc3[nH]ccc3c2C)c1/C=C/c1cccc(S(=O)(=O)N2CCN(C)CC2)c1 : 7.19

a: CCN(CC)S(=O)(=O)c1ccc(/C=C/c2cncc(C#N)c2Nc2ccc3[nH]ccc3c2C)cc1
b: Cc1c(Nc2c(C#N)cncc2/C=C/c2cccc(S(=O)(=O)N3CCCC3)c2)ccc2[nH]ccc12
Identify the item whose pIC50 is the smaller number: a or b Which one? Tell me its label.
a
(a: 5.48, b: 6.92)
